# IC50 per entry for CYP2D6 (Homo sapiens)

Requested read-out: IC50. Entry: "N#Cc1ccc(C(=O)Nc2cccc(C/N=C(\N)OCCCO)c2)nc1" > 20 µM

Could you do the same for "CO/C(N)=N\C1(c2cccc(NC(=O)c3cnc(C)cn3)c2)CC1" , please? > 20 µM

---

Can you tell me IC50 shift for the items I'm about to list?
# target_or_system: CYP3A4 (Homo sapiens, UniProt P08684)
# Sequence (P08684 whole entry): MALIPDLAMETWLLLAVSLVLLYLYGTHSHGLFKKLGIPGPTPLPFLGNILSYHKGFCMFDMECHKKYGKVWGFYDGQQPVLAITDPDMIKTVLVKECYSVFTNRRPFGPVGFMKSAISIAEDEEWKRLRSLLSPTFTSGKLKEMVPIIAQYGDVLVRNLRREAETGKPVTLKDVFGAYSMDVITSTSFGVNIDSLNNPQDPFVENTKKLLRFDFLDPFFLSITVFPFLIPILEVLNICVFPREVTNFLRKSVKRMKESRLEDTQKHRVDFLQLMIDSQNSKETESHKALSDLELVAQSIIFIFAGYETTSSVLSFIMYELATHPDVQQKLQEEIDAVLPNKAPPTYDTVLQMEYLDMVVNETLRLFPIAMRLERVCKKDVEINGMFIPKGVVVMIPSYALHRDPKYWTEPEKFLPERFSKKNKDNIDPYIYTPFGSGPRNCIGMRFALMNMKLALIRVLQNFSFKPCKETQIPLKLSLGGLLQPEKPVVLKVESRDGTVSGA
# test_description: CYP3A4 fluorescent MBI test
# Format: in vitro ADME
# Parameters: host or cells: E. coli
# condition: (IC50 without pre reaction) − (IC50 with pre reaction), pre-reaction 0 or 30 minutes
Give the value, in units of µM, as a plain number.

Requested read-out: IC50 shift. Entry: "CC#CCOc1cnc(C(=O)Nc2cccc(C/N=C(/N)SCCc3ccccc3)c2)cn1" -2

Could you do the same for "CS/C(N)=N\C1(c2cc(NC(=O)c3ccc(C#N)cn3)ccc2F)CC1" , please? 0

Could you do the same for "CC#CCOc1cnc(C(=O)Nc2cccc(C/N=C(/N)SC)c2)cn1" , please? 0

Could you do the same for "CS/C(N)=N\Cc1cccc(NC(=O)c2cnc(C)cn2)c1" , please? 0

Could you do the same for "CS/C(N)=N\c1cccc2ccc(NC(=O)c3ccc(C#N)cn3)cc12" , please? 1

Could you do the same for "C=CCS/C(N)=N\Cc1cccc(NC(=O)c2cnc(OCC#CC)cn2)c1" , please? -2

Could you do the same for "CC#CCOc1cnc(C(=O)Nc2cccc(C/N=C(/N)SCCC)c2)cn1" , please? -4

Could you do the same for "CC#CCOc1cnc(C(=O)Nc2cccc(C/N=C(/N)SCc3ccccn3)c2)cn1.O=CO" , please? -2

---

Can you tell me pIC50 for the items I'm about to list?
# target_or_system: CYP1A2 (Homo sapiens, UniProt P05177)
# Sequence (P05177 whole entry): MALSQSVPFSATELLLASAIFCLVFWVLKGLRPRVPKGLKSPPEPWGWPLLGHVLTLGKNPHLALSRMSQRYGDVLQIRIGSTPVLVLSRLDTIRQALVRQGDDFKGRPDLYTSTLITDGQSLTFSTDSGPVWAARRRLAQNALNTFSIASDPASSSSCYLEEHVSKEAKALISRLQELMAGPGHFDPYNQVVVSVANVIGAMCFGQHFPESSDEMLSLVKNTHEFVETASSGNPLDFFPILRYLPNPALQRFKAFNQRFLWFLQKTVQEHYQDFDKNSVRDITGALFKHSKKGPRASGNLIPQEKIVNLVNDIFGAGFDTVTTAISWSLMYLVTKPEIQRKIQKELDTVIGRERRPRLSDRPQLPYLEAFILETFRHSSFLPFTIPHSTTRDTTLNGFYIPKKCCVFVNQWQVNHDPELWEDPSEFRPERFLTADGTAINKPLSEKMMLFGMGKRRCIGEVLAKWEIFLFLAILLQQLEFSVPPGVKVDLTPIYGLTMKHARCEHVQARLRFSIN
pIC50: −log10 of the molar value.

Requested read-out: pIC50. Entry: "N#Cc1ccc(C(=O)Nc2cccc(C/N=C(\N)OCCCO)c2)nc1" < 4.70

Could you do the same for "CO/C(N)=N\C1(c2cccc(NC(=O)c3cnc(C)cn3)c2)CC1" , please? < 4.70

---

# target_or_system: CYP3A4 (Homo sapiens, UniProt P08684)
# test_description: CYP3A4 fluorescent MBI test
# Assay type: in vitro ADME
# Parameters: host or cells: E. coli
# condition: (IC50 without pre reaction) − (IC50 with pre reaction), pre-reaction 0 or 30 minutes
Can you tell me IC50 shift for the items I'm about to list?

Find the measured IC50 shift: item CS/C(N)=N/C1CCc2ccc(NC(=O)c3ccc(C#N)cn3)cc21 (stereo not shown) , target or system CYP3A4 (Homo sapiens, UniProt P08684). 0 µM

Could you do the same for "CC#CCOc1cnc(C(=O)Nc2cccc(C/N=C(/N)SCc3ccccc3)c2)cn1" , please? 1 µM

Could you do the same for "CS/C(N)=N\Cc1cc(NC(=O)c2ccc(C#N)cn2)ccc1F" , please? 0 µM

Could you do the same for "CS/C(N)=N\C1(c2cccc(NC(=O)c3cnc(C)cn3)c2)CCCC1" , please? 0 µM

Could you do the same for "CC#CCOc1cnc(C(=O)Nc2cccc(C/N=C(/N)SCc3ccncc3)c2)cn1.O=CO" , please? <-2 µM

Could you do the same for "CC#CCOc1cnc(C(=O)Nc2cccc(C/N=C(/N)SCC)c2)cn1" , please? <-2 µM

Could you do the same for "CC#CCOc1cnc(C(=O)Nc2cccc(C/N=C(/N)SCCCC)c2)cn1" , please? -5 µM
